Reported melting point values for the following compounds.

// below: answered compounds
# Compound, Result Value
records = [
    ("O=C(O)CC1ON=C(c2cccc(Cl)c2)NC1=O (stereo not drawn)", "211 to 212 °C"),
    ("CCC1ON=C(Cc2ccccc2)NC1=O (stereo not drawn)", "97 to 99 °C"),
]

Request: // melting point lookup, key: CCC1ON=C(c2ccc(OC)cc2)NC1=O (stereo not drawn)
Response: 139 to 141 °C

---

molecular target: MAO-B (Homo sapiens, UniProt P27338); construct: purchased Merck; assay: MAO-B inhibition, recombinant human enzyme, kynuramine substrate, fluorometric end-point; type: biochemical; conditions: mean ± SD of triplicate, racemic mixtures, NI = no inhibition at 100 µM
Param label: returns T when IC50 < 4 µM, returns F otherwise, including exact equality.

# Molecule, Category
measured = [
    ("O=C1CON=C(c2ccc([N+](=O)[O-])cc2)N1", "F"),
]

Request: IC50 strictly < 4 µM for this molecule? COc1ccc(C2=NOC(CC(=O)O)C(=O)N2)cc1 (stereo not shown)
Response: F

Request: IC50 strictly < 4 µM for this molecule? CCC1ON=C(c2ccc(C)s2)NC1=O (stereo not shown)
Response: F

Request: IC50 strictly < 4 µM for this molecule? O=C(O)CC1ON=C(c2ccc(OC(F)(F)F)cc2)NC1=O (stereo not shown)
Response: F

Request: IC50 strictly < 4 µM for this molecule? O=C1NC(c2ccc([N+](=O)[O-])cc2)=NOC1Cc1nc(-c2ccc([N+](=O)[O-])cc2)no1 (stereo not shown)
Response: T

Request: IC50 strictly < 4 µM for this molecule? CCC1ON=C(c2ccc(Oc3ccc(OC)cc3)cc2)NC1=O (stereo not shown)
Response: T

Request: IC50 strictly < 4 µM for this molecule? CCC1ON=C(c2ccc([N+](=O)[O-])cc2)NC1=O (stereo not shown)
Response: F

Request: IC50 strictly < 4 µM for this molecule? CCC1ON=C(c2ccc(Br)cc2)NC1=O (stereo not shown)
Response: F

Request: IC50 strictly < 4 µM for this molecule? O=C1NC(c2ccc(C(F)(F)F)cc2)=NOC1Cc1nc(-c2ccc(C(F)(F)F)cc2)no1 (stereo not shown)
Response: F

---

biological target: MAO-A (Homo sapiens, UniProt P21397); construct: purchased Merck; assay: MAO-A inhibition, recombinant human enzyme, kynuramine substrate, fluorometric end-point; assay type: biochemical; settings: mean ± SD of triplicate, racemic mixtures, NI = no inhibition at 100 µM
Reported IC50 values for the following compounds.

// below: answered compounds
# Compound, IC50
measured = [
    ("CCC1ON=C(c2ccc(OC)cc2)NC1=O (stereo not drawn) [Compound 5e]", "44.1 µM"),
    ("COc1ccc(C2=NOC(CC(=O)O)C(=O)N2)cc1 (stereo not drawn) [Compound 8c]", "> 100 µM"),
    ("Cc1ccc(C2=NOC(C)C(=O)N2)cc1 (stereo not drawn) [Compound 4a]", "67 µM"),
    ("O=C1NC(c2ccc(C(F)(F)F)cc2)=NOC1Cc1nc(-c2ccc(C(F)(F)F)cc2)no1 (stereo not drawn) [Compound 7d]", "> 100 µM"),
    ("O=C(O)CC1ON=C(c2ccc(Oc3ccccc3)cc2)NC1=O (stereo not drawn) [Compound 8b]", "12.7 µM"),
    ("O=C(O)CC1ON=C(c2ccc(C(F)(F)F)cc2)NC1=O (stereo not drawn) [Compound 8d]", "> 100 µM"),
]

Request: // IC50 lookup, key: CCC1ON=C(c2ccc(F)cc2)NC1=O (stereo not drawn) [Compound 5h]
Response: 93 µM

Request: // IC50 lookup, key: O=C1NC(c2ccc([N+](=O)[O-])cc2)=NOC1Cc1nc(-c2ccc([N+](=O)[O-])cc2)no1 (stereo not drawn) [Compound 7c]
Response: 12.9 µM

Request: // IC50 lookup, key: CC1ON=C(c2ccc([N+](=O)[O-])cc2)NC1=O (stereo not drawn) [Compound 4c]
Response: 58.5 µM

---

Target: MAO-A (Homo sapiens)
Construct: purchased Merck
Sequence (P21397 1-527): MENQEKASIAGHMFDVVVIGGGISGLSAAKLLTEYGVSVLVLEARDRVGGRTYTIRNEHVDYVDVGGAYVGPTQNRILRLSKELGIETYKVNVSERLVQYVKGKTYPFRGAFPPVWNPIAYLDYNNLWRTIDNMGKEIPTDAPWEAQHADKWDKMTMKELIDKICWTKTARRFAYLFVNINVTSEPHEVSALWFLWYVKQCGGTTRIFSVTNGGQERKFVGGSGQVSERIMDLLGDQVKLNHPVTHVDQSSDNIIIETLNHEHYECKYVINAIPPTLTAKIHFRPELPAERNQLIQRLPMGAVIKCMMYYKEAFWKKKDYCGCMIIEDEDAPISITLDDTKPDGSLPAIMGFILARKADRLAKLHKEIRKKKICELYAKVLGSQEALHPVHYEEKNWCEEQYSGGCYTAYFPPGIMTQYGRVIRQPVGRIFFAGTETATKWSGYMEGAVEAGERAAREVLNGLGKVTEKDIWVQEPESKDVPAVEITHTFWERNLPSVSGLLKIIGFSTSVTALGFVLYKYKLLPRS
Assay: MAO-A inhibition, recombinant human enzyme, kynuramine substrate, fluorometric end-point
Type: biochemical
Settings: mean ± SD of triplicate, racemic mixtures, NI = no inhibition at 100 µM
Property Name: IC50

// below: answered compounds
# Compound, IC50
data = [
    ("Cc1ccc(C2=NOC(Cc3nc(-c4ccc(C)cc4)no3)C(=O)N2)cc1 (centres unmarked) [Compound 7a]", "54.3 µM"),
    ("CC1ON=C(c2ccc(Br)cc2)NC1=O (centres unmarked) [Compound 4b]", "37.4 µM"),
    ("COC(=O)CC1ON=C(c2ccccc2)NC1=O (centres unmarked) [Compound 6a]", "> 100 µM"),
]

Request: Lab note: need IC50 with MAO-A (Homo sapiens) for entry CCC1ON=C(c2ccc(Oc3ccc(OC)cc3)cc2)NC1=O (centres unmarked) [Compound 5f] , please look it up.
Response: 15.4 µM

Request: Lab note: need IC50 with MAO-A (Homo sapiens) for entry O=C(O)CC1ON=C(c2ccc(OC(F)(F)F)cc2)NC1=O (centres unmarked) [Compound 8g] , please look it up.
Response: > 100 µM

---

molecular target: MAO-A (Homo sapiens, UniProt P21397); construct: purchased Merck; experiment: MAO-A inhibition, recombinant human enzyme, kynuramine substrate, fluorometric end-point; assay type: biochemical; details: mean ± SD of triplicate, racemic mixtures, NI = no inhibition at 100 µM
Reported IC50 values for the following molecules.

// below: answered molecules
# Molecule, Result Value
data = [
    ("CCC1ON=C(Cc2ccccc2)NC1=O (centres unmarked)", "> 100 µM"),
    ("O=C1NC(c2ccc(F)cc2)=NOC1Cc1nc(-c2ccc(F)cc2)no1 (centres unmarked)", "> 100 µM"),
    ("COC(=O)CC1ON=C(c2ccncc2)NC1=O (centres unmarked)", "> 100 µM"),
    ("COC(=O)CC1ON=C(c2ccc([N+](=O)[O-])cc2)NC1=O (centres unmarked)", "> 100 µM"),
]

Request: // IC50 lookup, key: O=C(O)CC1ON=C(c2cc(Cl)cc(Cl)c2)NC1=O (centres unmarked)
Response: > 100 µM

Request: // IC50 lookup, key: Cc1ccc(C2=NOC(CC(=O)O)C(=O)N2)cc1 (centres unmarked)
Response: > 100 µM

Request: // IC50 lookup, key: CCC1ON=C(c2ccc(C)cc2)NC1=O (centres unmarked)
Response: > 100 µM

Request: // IC50 lookup, key: COC(=O)CC1ON=C(c2ccc(C(F)(F)F)cc2)NC1=O (centres unmarked)
Response: > 100 µM

Request: // IC50 lookup, key: Cc1ccc(C2=NOCC(=O)N2)cc1
Response: 36.8 µM

Request: // IC50 lookup, key: CCC1ON=C(c2ccccc2)NC1=O (centres unmarked)
Response: > 100 µM

Request: // IC50 lookup, key: O=C(O)CC1ON=C(c2cccc(Cl)c2)NC1=O (centres unmarked)
Response: > 100 µM

---

Molecular target: MAO-B (Homo sapiens, UniProt P27338)
Construct: purchased Merck
Sequence (P27338 1-520): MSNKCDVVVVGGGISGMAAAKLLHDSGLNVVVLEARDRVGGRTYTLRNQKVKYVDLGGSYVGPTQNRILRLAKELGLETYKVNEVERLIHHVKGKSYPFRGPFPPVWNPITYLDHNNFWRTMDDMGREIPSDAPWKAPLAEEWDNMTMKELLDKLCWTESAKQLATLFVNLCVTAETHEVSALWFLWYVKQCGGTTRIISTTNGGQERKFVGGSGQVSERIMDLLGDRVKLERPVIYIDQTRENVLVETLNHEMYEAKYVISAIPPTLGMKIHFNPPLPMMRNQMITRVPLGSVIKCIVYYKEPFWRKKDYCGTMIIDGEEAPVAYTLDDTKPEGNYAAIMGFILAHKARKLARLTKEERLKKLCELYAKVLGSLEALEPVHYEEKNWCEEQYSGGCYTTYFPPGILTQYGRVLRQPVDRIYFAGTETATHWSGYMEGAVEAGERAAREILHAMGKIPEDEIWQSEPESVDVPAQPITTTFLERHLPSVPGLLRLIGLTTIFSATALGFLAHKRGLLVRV
Assay: MAO-B inhibition, recombinant human enzyme, kynuramine substrate, fluorometric end-point
Type: biochemical
Conditions: mean ± SD of triplicate, racemic mixtures, NI = no inhibition at 100 µM
Property Name: IC50 (µM)
A number alone suffices; assume µM.

// below: answered molecules
# Molecule, IC50 (µM)
rows = [
    ("COC(=O)CC1ON=C(c2ccc(C)s2)NC1=O (stereo not shown) [Compound 6d]", 33.9),
    ("CC1ON=C(c2ccc([N+](=O)[O-])cc2)NC1=O (stereo not shown) [Compound 4c]", 14.6),
]

Next up:
Request: // IC50 lookup, key: O=C1NC(c2ccc(F)cc2)=NOC1Cc1nc(-c2ccc(F)cc2)no1 (stereo not shown) [Compound 7b]
Response: 14.3
